read-out: Keratin 19 (KRT19), KRT19 (gene 3880); test: LTEA_HepaRG_KRT19: Life Technologies and Expression Analysis (LTEA) Assay for Keratin 19 (KRT19) using HepaRG (AID 2283512); conditions: mRNA level, 48 h; actives raise or lower the signal
Active and inactive are the calls of the source. Rule for the calls: active = hit-call score of the fitted dose curve at least 0.9, where 1 is the maximum; inactive = score below 0.9.
READOUT_KIND: AC50

CCCCCCCCOc1ccc(C(=O)c2ccccc2)c(O)c1; inactive
CCCC(=O)OCCC(C)C; inactive
C[C@]12CC[C@@H]3c4ccc(O)cc4CC[C@H]3[C@@H]1CCC2=O; inactive
CC(=O)N1CCN(c2ccc(OC[C@H]3CO[C@](Cn4ccnc4)(c4ccc(Cl)cc4Cl)O3)cc2)CC1; 12.2 µM (active)
Oc1ccc2ccccc2c1; inactive
CCN(Cc1cccnc1)C(=O)c1cccc(Cl)c1[C@]1(C)C(=O)N(Cc2ccc(OC)cc2OC)c2ccc(Cl)cc21; 27 µM (active)
CCCOC(=O)c1cc(O)c(O)c(O)c1; inactive
COc1cccc([C@H](O)C2CCN(CCc3ccc(F)cc3)CC2)c1OC; 15.3 µM (active)

Q: Give its AC50 value. Item: `CC(C)(C)c1csc(-c2cc3cc(OCc4ccccc4CC(=O)O)ccc3o2)n1`
Ans: inactive

Q: // lookup AC50 for `CCCCCCCCOC(=O)c1cc(O)c(O)c(O)c1`
Ans: 27.1 µM (active)

Q: So what does the record say about AC50 for `NCc1cccc(C2CCN(C(=O)c3ccc(C#Cc4ccccc4F)o3)CC2)c1` ?
Ans: 9.92 µM (active)
